- assay-system: T1, human PRLR on cells (endogenous on T47D, T47D#11, MCF7); introduced in HEK293/hPRLR/STAT5-Luc, 293/hPRLR, … (human, UniProt P16471 25-622)
- T1 construct: no tag is stated for these lines; also called prolactin receptor
- T1 sequence: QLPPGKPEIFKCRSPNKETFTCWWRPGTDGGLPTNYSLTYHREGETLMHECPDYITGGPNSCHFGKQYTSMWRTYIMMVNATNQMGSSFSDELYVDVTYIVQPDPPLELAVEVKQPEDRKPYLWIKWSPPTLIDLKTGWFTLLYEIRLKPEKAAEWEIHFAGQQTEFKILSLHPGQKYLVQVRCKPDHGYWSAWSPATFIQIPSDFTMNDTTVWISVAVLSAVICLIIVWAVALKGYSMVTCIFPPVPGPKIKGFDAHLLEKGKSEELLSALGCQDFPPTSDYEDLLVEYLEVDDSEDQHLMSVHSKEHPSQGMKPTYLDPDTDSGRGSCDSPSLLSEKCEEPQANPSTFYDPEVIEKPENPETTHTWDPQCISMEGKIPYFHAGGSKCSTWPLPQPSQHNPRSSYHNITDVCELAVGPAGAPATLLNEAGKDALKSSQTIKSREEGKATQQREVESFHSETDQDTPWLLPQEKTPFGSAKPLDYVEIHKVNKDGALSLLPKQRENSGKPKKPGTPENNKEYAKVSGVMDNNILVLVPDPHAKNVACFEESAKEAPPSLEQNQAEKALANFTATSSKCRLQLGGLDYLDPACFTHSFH
- experiment-summary: imaging of alexa488 intensity on T47D cells
property-label: % Total Binding relative to Control I (%)
# unit: % | format: bare number

Exam item: Look up % Total Binding relative to Control I: H1H6792P (antibody, human IgG1, V domains shown, human IgG1 Fc (H1H)) VH: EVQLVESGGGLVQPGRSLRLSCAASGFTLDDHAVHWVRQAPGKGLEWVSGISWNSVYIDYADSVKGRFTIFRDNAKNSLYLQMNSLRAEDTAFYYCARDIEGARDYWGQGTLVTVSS VL: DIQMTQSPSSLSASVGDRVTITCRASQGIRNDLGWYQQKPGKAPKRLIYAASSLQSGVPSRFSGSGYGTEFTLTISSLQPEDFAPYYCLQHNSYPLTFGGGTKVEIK
Marked response: 111
